Origin of the recorded values: patent US9783499B2

System: U87MG (Human malignant glioblastoma cell)
method summary: In vitro anti-tumor cellular activity (MTT), U87MG
Type: cell-based
condition info: 72 hours
Output 1 (yes) for records whose U87MG IC50 is lower than 0.7 µg/mL, 0 (no) for records at or above 0.7 µg/mL.

compound="COc1cc2c(Oc3ccc(NC(=O)NN=Cc4ccc(Cl)cc4Cl)cc3F)ccnc2cc1OCCCN1CCOCC1 [Example 20]" system_name="U87MG (Human malignant glioblastoma cell)" class_label="0 (no)"
compound="COc1cc2c(Oc3ccc(NC(=S)N/N=C/c4ccccc4)cc3F)ccnc2cc1OCCCN1CCC(C)CC1 [Example 37]" system_name="U87MG (Human malignant glioblastoma cell)" class_label="1 (yes)"
compound="COc1cc2c(Oc3ccc(NC(=O)N/N=C/c4ccccc4)cc3F)ccnc2cc1OCCCN1CCN(C)CC1 [Example 4]" system_name="U87MG (Human malignant glioblastoma cell)" class_label="1 (yes)"
compound="COc1cc2c(Oc3ccc(NC(=S)N/N=C/c4ccccc4)cc3F)ccnc2cc1OCCCN1CCCC1 [Example 36]" system_name="U87MG (Human malignant glioblastoma cell)" class_label="1 (yes)"
compound="COc1cc2c(Oc3ccc(NC(=O)N/N=C/c4ccc(F)c(F)c4)cc3F)ccnc2cc1OCCCN1CCCC1 [Example 22]" system_name="U87MG (Human malignant glioblastoma cell)" class_label="1 (yes)"
compound="COc1cc2c(Oc3ccc(NC(=O)NN=Cc4ccc(F)cc4Cl)cc3F)ccnc2cc1OCCCN1CCOCC1 [Example 14]" system_name="U87MG (Human malignant glioblastoma cell)" class_label="0 (no)"
compound="COc1cccc(/C=N/NC(=O)Nc2ccc(Oc3ccnc4cc(OCCCN5CCC(C)CC5)c(OC)cc34)c(F)c2)c1 [Example 7]" system_name="U87MG (Human malignant glioblastoma cell)" class_label="1 (yes)"
compound="COc1cc2c(Oc3ccc(NC(=O)N/N=C/c4ccccc4)cc3F)ccnc2cc1OCCCN1CCCCC1 [Example 5]" system_name="U87MG (Human malignant glioblastoma cell)" class_label="1 (yes)"
compound="COc1cc2c(Oc3ccc(NC(=S)N/N=C/c4ccccc4)cc3F)ccnc2cc1OCCCN1CCN(C)CC1 [Example 39]" system_name="U87MG (Human malignant glioblastoma cell)" class_label="0 (no)"

---

Tested on: MKN-45 (human gastric carcinoma cell)
method summary: In vitro anti-tumor cellular activity (MTT), MKN-45
Format: cell-based
condition info: 72 hours
Just a reminder that ties go to Not fulfilled: only MKN-45 IC50 strictly below 0.6 µg/mL counts as Fulfilled.

molecule=COc1cc2c(Oc3ccc(NC(=O)N/N=C/c4ccccc4)cc3F)ccnc2cc1OCCCN1CCC(C)CC1 class_label=Fulfilled
molecule=COc1cc2c(Oc3ccc(NC(=S)N/N=C/c4ccccc4)cc3F)ccnc2cc1OCCCN1CCOCC1 class_label=Fulfilled
molecule="N.N.[Cl][Pt][Cl] [Cisplatin, reference compound]" class_label="Not fulfilled"
molecule=COc1cc2c(Oc3ccc(NC(=O)NN=Cc4ccc(F)cc4Cl)cc3F)ccnc2cc1OCCCN1CCOCC1 class_label="Not fulfilled"
molecule=COc1cc2c(Oc3ccc(NC(=O)N/N=C/c4ccccc4)cc3F)ccnc2cc1OCCCN1CCCCC1 class_label=Fulfilled
molecule=COc1cc2c(Oc3ccc(NC(=O)NN=Cc4ccc(Cl)cc4Cl)cc3F)ccnc2cc1OCCCN1CCOCC1 class_label="Not fulfilled"
molecule=COc1cc2c(Oc3ccc(NC(=S)NN=Cc4ccc(Cl)cc4Cl)cc3F)ccnc2cc1OCCCN1CCN(C)CC1 class_label="Not fulfilled"
